Source listed as patent US20220185898A1.

The reader will find reported pKd values listed item by item below.
# target-system: T1, biotinylated human Sortilin monomer (human, UniProt Q99523 78-755, limits assumed, biotinylated (Sulfo-NHS-biotin))
# T1 construct: monomer cut from the Fc fusion with IdeS; used unbiotinylated in solution in some formats; also called Bt-hSort; b-H Sort
# assay-notes: ForteBio, Fab
# log scale: pKd equals minus log10 of the concentration in mol/L

Answered cases to consult:
[
  {
    "binder": "S-2-11 Fab (Fab, V domains shown, Fab by papain digestion) VH: QVQLVQSGAEVKKPGASVKVSCKASGYTFLAYYMHWVRQAPGQGLEWMGWINPSWGSTSYAQKFQGRVTMTRDTSISTAYMELSRLRSDDTAVYYCARGKRSSGWYEGYGMDVWGQGTTVTVSS VL: DIQMTQSPSSLSASVGDRVTITCRASQSISSYLNWYQQKPGKAPKLLIYAASSLQSGVPSRFSGSGSGTDFTLTISSLQPEDFATYYCQQSDVSPITFGGGTKVEIK",
    "pKd": 9.58
  },
  {
    "binder": "S-15-3 Fab (Fab, V domains shown, Fab by papain digestion) VH: QVQLVQSGAEVKKPGASVKVSCKASGYTFTSTYMSWVRQAPGQGLEWMGIINPYGGSTSYAQKFQGRVTMTRDTSTSTVYMELSSLRSEDTAVYYCARDPSGIAAAGPASRYYYGMDVWGQGTTVTVSS VL: EIVMTQSPATLSVSPGERATLSCRASQSVSSNLAWYQQKPGQAPRLLIYGASTRATGIPARFSGSGSGTEFTLTISSLQSEDFAVYYCQQARLGPWTFGGGTKVEIK",
    "pKd": 9.03
  },
  {
    "binder": "S-22-7 Fab (Fab, V domains shown, Fab by papain digestion) VH: QVQLVQSGAEVKKPGSSVKVSCKASGGTFSSYAISWVRQAPGQGLEWMGGIIPGFGRANYAQKFQGRVTITADESTSTAYMELSSLRSEDTAVYYCARQGRKTGYYYYYGMDVWGQGTTVTVSS VL: DIQMTQSPSTLSASVGDRVTITCRASQSISSWLAWYQQKPGKAPKLLIYKASSLESGVPSRFSGSGSGTEFTLTISSLQPDDFATYYCQQADGHITFGGGTKVEIK",
    "pKd": 9.29
  },
  {
    "binder": "S-22-3 Fab (Fab, V domains shown, Fab by papain digestion) VH: QVQLVQSGAEVKKPGSSVKVSCKASGGTFRSYAISWVRQAPGQGLEWMGGIIPGFGTAWYAQKFQGRVTITADESTSTAYMELSSLRSEDTAVYYCARQGRKTGYYYYYGMDVWGQGTTVTVSS VL: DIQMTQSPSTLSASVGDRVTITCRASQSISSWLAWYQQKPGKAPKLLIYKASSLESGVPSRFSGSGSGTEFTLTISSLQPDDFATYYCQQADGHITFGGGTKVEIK",
    "pKd": 9.16
  },
  {
    "binder": "S-15-14 Fab (Fab, V domains shown, Fab by papain digestion) VH: QVQLVQSGAEVKKPGASVKVSCKASGYTFTSQYMSWVRQAPGQGLEWMGIINPYGGSTSYAQKFQGRVTMTRDTSTSTVYMELSSLRSEDTAVYYCARDPSGIAAAGPASRYYYGMDVWGQGTTVTVSS VL: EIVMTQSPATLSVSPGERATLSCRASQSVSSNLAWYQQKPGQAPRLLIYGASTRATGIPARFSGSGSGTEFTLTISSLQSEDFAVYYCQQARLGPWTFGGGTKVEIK",
    "pKd": 8.98
  }
]

[Q] Answer with reported pKd of S-22-9 Fab (Fab, V domains shown, Fab by papain digestion) VH: QVQLVQSGAEVKKPGSSVKVSCKASGGTFRNYAISWVRQAPGQGLEWMGGIIPIGGWANYAQKFQGRVTITADESTSTAYMELSSLRSEDTAVYYCARQGRKTGYYYYYGMDVWGQGTTVTVSS VL: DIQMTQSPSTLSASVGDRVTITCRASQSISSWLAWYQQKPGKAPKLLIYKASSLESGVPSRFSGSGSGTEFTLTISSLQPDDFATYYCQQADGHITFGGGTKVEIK
[A] 9.24

[Q] Answer with reported pKd of S-2-1 Fab (Fab, V domains shown, Fab by papain digestion of the IgG) VH: QVQLVQSGAEVKKPGASVKVSCKASGYTFGAYYMHWVRQAPGQGLEWMGWINPNSGFTRYAQKFQGRVTMTRDTSISTAYMELSRLRSDDTAVYYCARGKRSSGWYEGYGMDVWGQGTTVTVSS VL: DIQMTQSPSSLSASVGDRVTITCRASQSISSYLNWYQQKPGKAPKLLIYAASSLQSGVPSRFSGSGSGTDFTLTISSLQPEDFATYYCQQSDVSPITFGGGTKVEIK
[A] 9.21
